- target_entity: human adenosine A2A membrane preparation (Homo sapiens (Human), UniProt P29274)
- Sequence (P29274 whole entry): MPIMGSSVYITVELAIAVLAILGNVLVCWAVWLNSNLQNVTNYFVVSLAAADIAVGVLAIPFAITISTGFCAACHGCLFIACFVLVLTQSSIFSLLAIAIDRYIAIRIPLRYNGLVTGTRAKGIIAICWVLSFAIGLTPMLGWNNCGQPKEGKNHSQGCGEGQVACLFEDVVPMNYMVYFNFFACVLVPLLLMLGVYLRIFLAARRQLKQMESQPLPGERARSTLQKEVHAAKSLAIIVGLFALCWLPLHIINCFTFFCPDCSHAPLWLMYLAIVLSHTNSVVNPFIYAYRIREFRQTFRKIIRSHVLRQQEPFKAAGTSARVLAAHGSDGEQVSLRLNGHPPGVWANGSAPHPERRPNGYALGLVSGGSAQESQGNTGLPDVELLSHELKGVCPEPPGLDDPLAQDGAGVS
- assay_protocol: Adenosine A2A receptor radioligand binding assay (SPA beads, 3H-SCH 58261, 384 plate)
- conditions: read-out: A2a binding % inh @ 10 nM
Hi, to clarify the labels: class 1 covers inhibition at 0.01 µM from 60% upward, class 0 covers anything below 60%.

compound	group
Cc1ccc(-c2nc(N)c(C#N)nc2-c2ccc3ncccc3c2)s1 [Compound No. 1.282]	class 1

# check: inhibition at 0.01 µM of Cc1ncc(-c2nc(N)cnc2-c2ccc3ncccc3c2)s1 [Compound No. 1.288] is greater than or equal to 60%
class 1

Does the reported inhibition at 0.01 µM for Nc1cnc(-c2cc(Cl)c3[nH]ncc3c2)c(-c2ccccc2)n1 [Compound No. 1.289] fall at or above the 60% mark?
class 1

Assess whether reported inhibition at 0.01 µM for CC(=O)Nc1nc(-c2ccccc2)c(-c2ccc3ncccc3c2)nc1C#N [Compound No. 1.284] sits at 60% or higher.
class 0

----------
- target_entity: human adenosine A2A membrane preparation (Homo sapiens (Human), UniProt P29274)
- assay_protocol: Adenosine A2A receptor radioligand binding assay (SPA beads, 3H-SCH 58261, 384 plate)
- conditions: read-out: A2a binding % inh @ 10 nM
metric: inhibition at 0.01 µM (%)
Just the number please, in %, no unit attached.

query_smiles	metric	measured_number
Cc1ccn(-c2nc(N)c(C#N)nc2-c2ccc3ncccc3c2)n1	inhibition at 0.01 µM	85
Cc1ccn(-c2nc(N)cnc2-c2ccc3ncsc3c2)n1	inhibition at 0.01 µM	87

Name the recorded inhibition at 0.01 µM of the molecule listed here: `Cc1ccn(-c2nc(N)c(C#N)nc2-c2cc(Cl)c3ncccc3c2)n1`
93

Provide only the value of recorded inhibition at 0.01 µM for `Cc1ccc(-c2nc(N)c(C#N)nc2-c2ccc3ncccc3c2)o1`
78

----------
- target_entity: human adenosine A2A membrane preparation (Homo sapiens (Human), UniProt P29274)
- assay_protocol: Adenosine A2A receptor radioligand binding assay (SPA beads, 3H-SCH 58261, 384 plate)
- conditions: read-out: A2a binding % inh @ 1000 nM
Recorded inhibition at 1 µM, one value per entry.
Field note: include the unit after the figure.

Reference set (5 entries):
query_smiles	target_entity	result
Cc1ccn(-c2nc(N)c(C#N)nc2-c2ccc3ncccc3c2)n1	human adenosine A2A membrane preparation (Homo sapiens (Human), UniProt P29274)	89%
Cn1ccc(-c2nc(N)cnc2-c2ccc3ncccc3c2)n1	human adenosine A2A membrane preparation (Homo sapiens (Human), UniProt P29274)	90%
Cc1ncc(-c2nc(N)cnc2-c2ccc3ncccc3c2)s1	human adenosine A2A membrane preparation (Homo sapiens (Human), UniProt P29274)	84%
Cc1ccc(-c2nc(N)c(C#N)nc2-c2ccc3ncccc3c2)o1	human adenosine A2A membrane preparation (Homo sapiens (Human), UniProt P29274)	80%
Cc1ccn(-c2nc(N)cnc2-c2ccc3ncsc3c2)n1	human adenosine A2A membrane preparation (Homo sapiens (Human), UniProt P29274)	86%

Let's switch to this molecule now.
Determine its reported inhibition at 1 µM: `Cc1ccn(-c2nc(N)cnc2-c2ccc3[nH]ncc3c2)n1`
80%

----------
- target_entity: adenosine A2A receptor (Homo sapiens (Human))
- assay_protocol: A2A adenosine receptor radioligand binding competition assay (filter plates)
- conditions: 100 nM
# Lookup of reported A2A radioligand binding competition assay % residual binding @ 100 nM keyed by entry
Report as a plain number; the unit % is understood.

query_smiles	measured_number
Nc1nc(-c2ccccc2)c(-c2ccc3ncccc3c2)nc1Br	76
Nc1cnc(-c2ccc(O)c(Cl)c2)c(-c2ccccc2)n1	30
Nc1cnc(-c2ccc3[nH]cnc3c2)c(-c2ccccc2)n1	77

State, in one line, measured A2A radioligand binding competition assay % residual binding @ 100 nM of `Nc1cnc(-c2cc(Cl)c3[nH]cnc3c2)c(-c2ccccc2)n1`
83

Values were extracted from patent US11028058B2.
